Listed here: items and their measured IC50.
TARGET_DESC: SAE (Homo sapiens, UniProt Q9UBT2)
Construct: endogenous in cells; host or cells: HCT116
Sequence (Q9UBT2 whole entry): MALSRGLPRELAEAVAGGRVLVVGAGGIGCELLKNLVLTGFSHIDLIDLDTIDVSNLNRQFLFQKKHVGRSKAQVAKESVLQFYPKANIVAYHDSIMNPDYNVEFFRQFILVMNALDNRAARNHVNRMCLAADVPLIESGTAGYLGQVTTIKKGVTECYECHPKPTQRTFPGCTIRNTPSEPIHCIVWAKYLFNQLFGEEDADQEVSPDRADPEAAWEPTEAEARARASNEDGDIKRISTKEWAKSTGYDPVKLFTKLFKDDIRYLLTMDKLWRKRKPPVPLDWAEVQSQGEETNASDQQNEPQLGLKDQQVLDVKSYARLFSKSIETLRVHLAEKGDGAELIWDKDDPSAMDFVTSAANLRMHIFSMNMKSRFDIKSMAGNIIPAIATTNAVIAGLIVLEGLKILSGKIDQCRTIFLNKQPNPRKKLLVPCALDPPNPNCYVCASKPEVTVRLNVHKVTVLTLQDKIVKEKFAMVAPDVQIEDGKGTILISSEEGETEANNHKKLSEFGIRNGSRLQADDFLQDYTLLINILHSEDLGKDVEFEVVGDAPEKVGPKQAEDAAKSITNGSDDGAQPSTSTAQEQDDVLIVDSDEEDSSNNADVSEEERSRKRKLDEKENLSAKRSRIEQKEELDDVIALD
Sequence (Q9UBE0 whole entry, further chain): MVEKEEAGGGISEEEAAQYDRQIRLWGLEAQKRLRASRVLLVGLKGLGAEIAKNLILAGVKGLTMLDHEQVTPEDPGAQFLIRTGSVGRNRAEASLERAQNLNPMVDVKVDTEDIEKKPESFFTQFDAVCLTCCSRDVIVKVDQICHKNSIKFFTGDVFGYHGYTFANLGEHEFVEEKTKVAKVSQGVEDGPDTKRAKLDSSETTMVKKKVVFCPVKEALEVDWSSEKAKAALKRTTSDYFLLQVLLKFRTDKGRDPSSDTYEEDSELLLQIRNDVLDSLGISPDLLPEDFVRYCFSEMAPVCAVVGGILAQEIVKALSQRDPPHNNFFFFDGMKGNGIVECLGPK
PROCEDURE_SUMMARY: SUMO IF: in vitro inhibitory activity assay against SAE in HCT116 cells (SUMO-2/3 immunofluorescence)
Assay type: cell-based
COND: class symbols, 6 h at 37° C.
VALUE_KIND: IC50

INSERT INTO measurements (compound, target_desc, value_kind, experimental_value) VALUES
  ('NS(=O)(=O)OC[C@H]1[C@H](F)[C@@H](Nc2ncncc2C(=O)c2cc3c(s2)CCCC32NCCc3ccc(Cl)cc32)C[C@@H]1O (some centres unmarked) [Compound 88]', 'SAE (Homo sapiens, UniProt Q9UBT2)', 'IC50', '≤ 50 nM'),
  ('N#Cc1ccc2c(c1)C1(CCCc3sc(C(=O)c4cncnc4N[C@H]4C[C@H](O)[C@@H](COS(N)(=O)=O)[C@@H]4F)cc31)OCC2 (some centres unmarked) [Compound 714]', 'SAE (Homo sapiens, UniProt Q9UBT2)', 'IC50', '50 to 200 nM'),
  ('NS(=O)(=O)OC[C@H]1[C@H](F)[C@@H](Nc2ncncc2C(=O)c2cc3c(s2)CCC[C@]32NCCc3cc(Cl)ncc32)C[C@@H]1O [Compound 679]', 'SAE (Homo sapiens, UniProt Q9UBT2)', 'IC50', '50 to 200 nM'),
  ('NS(=O)(=O)OC[C@H]1[C@H](F)[C@@H](Nc2ncncc2C(=O)c2cc3c(s2)CC[C@]32NCC3(CC3)c3ccc(Cl)cc32)C[C@@H]1O [Compound 704]', 'SAE (Homo sapiens, UniProt Q9UBT2)', 'IC50', '50 to 200 nM'),
  ('NS(=O)(=O)OC[C@H]1[C@H](F)[C@@H](Nc2ncncc2C(=O)c2cc3c(s2)C(F)(F)CC32NCCc3ccc(Cl)cc32)C[C@@H]1O (some centres unmarked) [Compound 327]', 'SAE (Homo sapiens, UniProt Q9UBT2)', 'IC50', '50 to 200 nM'),
  ('NS(=O)(=O)OC[C@H]1[C@H](F)[C@@H](Nc2ncncc2C(=O)c2cc3c(s2)CNC[C@]32NCCc3ccc(Cl)cc32)C[C@@H]1O [Compound 584]', 'SAE (Homo sapiens, UniProt Q9UBT2)', 'IC50', '50 to 200 nM'),
  ('NS(=O)(=O)OC[C@H]1[C@H](F)[C@@H](Nc2ncncc2C(=O)c2cc3c(s2)COC[C@@]32NCCc3cc(Cl)c(Cl)cc32)C[C@@H]1O [Compound 562]', 'SAE (Homo sapiens, UniProt Q9UBT2)', 'IC50', '> 200 nM'),
  ('Cc1sc(C(=O)c2cncnc2N[C@H]2C[C@H](O)[C@@H](COS(N)(=O)=O)[C@@H]2F)cc1C1NCCc2ccc(C#N)cc21 (some centres unmarked) [Compound 238]', 'SAE (Homo sapiens, UniProt Q9UBT2)', 'IC50', '> 200 nM'),
  ('NS(=O)(=O)OC[C@H]1[C@H](F)[C@@H](Nc2ncncc2C(=O)c2cc3c(s2)CCC[C@]32OCCc3ccc(F)cc32)C[C@@H]1O [Compound 713]', 'SAE (Homo sapiens, UniProt Q9UBT2)', 'IC50', '≤ 50 nM'),
  ('CCN1Cc2sc(C(=O)c3cncnc3N[C@H]3C[C@H](O)[C@@H](COS(N)(=O)=O)[C@@H]3F)cc2C2(C1)OCCc1ccc(Cl)cc12 (some centres unmarked) [Compound 729]', 'SAE (Homo sapiens, UniProt Q9UBT2)', 'IC50', '≤ 50 nM'),
  ('NS(=O)(=O)OC[C@H]1[C@H](F)[C@@H](Nc2ncncc2C(=O)c2cc3c(s2)CN(C2CC2)CC32NCCc3ccc(Cl)cc32)C[C@@H]1O (some centres unmarked) [Compound 579]', 'SAE (Homo sapiens, UniProt Q9UBT2)', 'IC50', '≤ 50 nM'),
  ('NS(=O)(=O)OC[C@H]1[C@H](F)[C@@H](Nc2ncncc2C(=O)c2cc([C@H]3NCCc4ccc(Cl)cc43)c(C3CC3)s2)C[C@@H]1O [Compound 986]', 'SAE (Homo sapiens, UniProt Q9UBT2)', 'IC50', '> 200 nM'),
  ('NS(=O)(=O)OC[C@H]1[C@H](F)[C@@H](Nc2ncncc2C(=O)c2cc3c(s2)CC[C@]32NCCc3cc(Cl)c(F)cc32)C[C@@H]1O [Compound 698]', 'SAE (Homo sapiens, UniProt Q9UBT2)', 'IC50', '≤ 50 nM'),
  ('Cc1cc2c(cc1Cl)C(c1cc(C(=O)c3cncnc3N[C@H]3C[C@H](O)[C@@H](COS(N)(=O)=O)[C@@H]3F)sc1C)NCC2 (some centres unmarked) [Compound 248]', 'SAE (Homo sapiens, UniProt Q9UBT2)', 'IC50', '50 to 200 nM'),
  ('NS(=O)(=O)OC[C@H]1[C@H](F)[C@@H](Nc2ncncc2C(=O)c2cc3c(s2)C=C[C@@]32NCCc3ccc(F)cc32)C[C@@H]1O [Compound 345]', 'SAE (Homo sapiens, UniProt Q9UBT2)', 'IC50', '> 200 nM'),
  ('NS(=O)(=O)OC[C@H]1[C@H](F)[C@@H](Nc2ncncc2C(=O)c2cc3c(s2)C(F)(F)C[C@@]32NCCc3ccc(F)cc32)C[C@@H]1O [Compound 625]', 'SAE (Homo sapiens, UniProt Q9UBT2)', 'IC50', '> 200 nM'),
  ('NS(=O)(=O)OC[C@H]1[C@H](F)[C@@H](Nc2ncncc2C(=O)c2cc3c(s2)CCC[C@]32NC(=O)Cc3ccc(Cl)cc32)C[C@@H]1O [Compound 629]', 'SAE (Homo sapiens, UniProt Q9UBT2)', 'IC50', '> 200 nM'),
  ('COc1ccc2c(c1)[C@]1(CCCc3sc(C(=O)c4cncnc4N[C@H]4C[C@H](O)[C@@H](COS(N)(=O)=O)[C@@H]4F)cc31)NCC2 [Compound 643]', 'SAE (Homo sapiens, UniProt Q9UBT2)', 'IC50', '> 200 nM'),
  ('NS(=O)(=O)OC[C@H]1[C@H](F)[C@@H](Nc2ncncc2C(=O)c2cc3c(s2)CCC[C@]32NCCc3cnc(Cl)cc32)C[C@@H]1O [Compound 599]', 'SAE (Homo sapiens, UniProt Q9UBT2)', 'IC50', '≤ 50 nM'),
  ('CC1CN[C@@]2(C=Cc3sc(C(=O)c4cncnc4N[C@H]4C[C@H](O)[C@@H](COS(N)(=O)=O)[C@@H]4F)cc32)c2cc(Cl)ccc21 (some centres unmarked) [Compound 1054]', 'SAE (Homo sapiens, UniProt Q9UBT2)', 'IC50', '> 200 nM'),
  ('NS(=O)(=O)OC[C@H]1[C@H](F)[C@@H](Nc2ncncc2C(=O)c2cc3c(s2)CSC[C@@]32NCCc3ncc(Cl)cc32)C[C@@H]1O [Compound 613]', 'SAE (Homo sapiens, UniProt Q9UBT2)', 'IC50', '> 200 nM'),
  ('NS(=O)(=O)OC[C@H]1[C@H](F)[C@@H](Nc2ncncc2C(=O)c2cc3c(s2)CCC32NCCc3ccc(Cl)cc32)C[C@@H]1O (some centres unmarked) [Compound 130]', 'SAE (Homo sapiens, UniProt Q9UBT2)', 'IC50', '50 to 200 nM'),
  ('CN1Cc2sc(C(=O)c3cncnc3N[C@H]3C[C@H](O)[C@@H](COS(N)(=O)=O)[C@@H]3F)cc2[C@]2(C1)OCCc1ccc(F)cc12 [Compound 722]', 'SAE (Homo sapiens, UniProt Q9UBT2)', 'IC50', '≤ 50 nM');

---

TARGET_DESC: SAE (Homo sapiens, UniProt Q9UBT2)
Construct: endogenous in cells; host or cells: HCT116
PROCEDURE_SUMMARY: SUMO IF: in vitro inhibitory activity assay against SAE in HCT116 cells (SUMO-2/3 immunofluorescence)
Assay type: cell-based
COND: class symbols, 6 h at 37° C.
VALUE_KIND: IC50

INSERT INTO results (compound, target_desc, experimental_value) VALUES
  ('CC(C)N1Cc2sc(C(=O)c3cncnc3N[C@H]3C[C@H](O)[C@@H](COS(N)(=O)=O)[C@@H]3F)cc2[C@]2(C1)OCCc1ccc(F)cc12', 'SAE (Homo sapiens, UniProt Q9UBT2)', '≤ 50 nM'),
  ('Cc1ccc2c(c1)C1(CCCc3sc(C(=O)c4cncnc4N[C@H]4C[C@H](O)[C@@H](COS(N)(=O)=O)[C@@H]4F)cc31)NCC2 (stereo partly drawn)', 'SAE (Homo sapiens, UniProt Q9UBT2)', '50 to 200 nM'),
  ('NS(=O)(=O)OC[C@H]1[C@H](F)[C@@H](Nc2ncncc2C(=O)c2cc3c(s2)CCC[C@@]32NC(=O)Cc3ccc(Cl)cc32)C[C@@H]1O', 'SAE (Homo sapiens, UniProt Q9UBT2)', '> 200 nM');
